Here we list compounds with their recorded pIC50 when tested on human mTOR enzyme (Homo sapiens).
pIC50: −log10 of the molar value.
measurement-name: pIC50

> print(dat)
                                    compound        result
 1  Cc1n[nH]c2c1c(C1CCS(=O)(=O)CC1)nc1c(-c3ccc(-c4ccccc4)nc3)cnn12 [Compound 20]  8.00 to 9.00
 2  Cc1n[nH]c2c1c(C1CCS(=O)(=O)CC1)nc1c(-c3cnc4ccccc4c3)cnn12 [Compound 18]  8.00 to 9.00
 3  C[C@@H](O)C(=O)N1CCC(c2nc3c(-c4ccc(-c5ccccc5)nc4)cnn3c3[nH]cc(Cl)c23)CC1 [Compound 34]  8.00 to 9.00
 4  O=C(O)CC1CCC(c2nc3c(-c4ccc(-c5ccccc5)nc4)cnn3c3[nH]ccc23)CC1 (mixture of isomers) [Compound 29]        > 9.00
 5  Cc1n[nH]c2c1c(C1CCS(=O)(=O)CC1)nc1c(-c3cnc4ccc(F)cc4c3)cnn12 [Compound 21]  8.00 to 9.00
 6  Cc1n[nH]c2c1c([C@H]1CC[C@H](C(=O)O)CC1)nc1c(-c3ccc(-c4ccccc4)nc3)cnn12 [Compound 8]        > 9.00
 7  Cc1n[nH]c2c1c(CNC1CCOCC1)nc1c(-c3cnc4ccccc4c3)cnn12 [Compound 26]  8.00 to 9.00
 8  O=C(O)[C@H]1CC[C@H](c2nc3c(-c4ccc(-c5ccccc5)nc4)cnn3c3[nH]ccc32)CC1 [Compound 23]  8.00 to 9.00
 9  CC1(C(=O)O)CC=C(c2nc3c(-c4ccc(-c5ccccc5)nc4)cnn3c3[nH]ccc23)CC1 (stereo not shown) [Compound 28]  8.00 to 9.00
10  Cc1n[nH]c2c1c(C1CCC(CC(=O)O)CC1)nc1c(-c3ccc(-c4ccccc4)nc3)cnn12 (stereo not shown) [Compound 22]        > 9.00
